Target: Sigma non-opioid intracellular receptor 1 (Cavia porcellus)
Test: In vitro binding affinity at Sigma opioid receptors on guinea pig brain membranes by [3H]-3-PPP displacement.
assayReadout: IC50 (nM)
Express it in nM; write the number only.

Challenge: Query (compound): CCCCCC(Cc1ccc(OC)c(OCCc2ccccc2)c1)N(CCC)CCC (configuration not stated) ; field requested: IC50
Response given: 30

----------
Target: Sigma-2 receptor (guinea pig)
Assay: TIn vitro binding affinity at Sigma opioid receptor type 2 on guinea pig brain membranes by [3H]DTG displacement in the presence of […].
assayReadout: pIC50
Scale: pIC50 equals -log10([C]), with [C] in mol/L.

- compound: "CCCCCC(Cc1ccc(OC)c(OCCc2ccccc2)c1)NCCC (centres undefined)"
  pIC50: 6.96
- compound: "CCCC(Cc1ccc(OC)c(OCCc2ccccc2)c1)N(CCC)CCC (centres undefined)"
  pIC50: 6.38
- compound: "CCCCCCC(Cc1ccc(OC)c(OCCc2ccccc2)c1)NCCC (centres undefined)"
  pIC50: 6.64

Here is another compound to look at.
Challenge: Record request: pIC50 value, item CCCNC(CC)Cc1ccc(OC)c(OCCc2ccccc2)c1 (centres undefined)
Response given: 6.48
